Reference source: the supplement of paper PMC9170038

- System: MS2 coat protein
- Test method notes: apparent KD of MS2 coat protein; designed switch direction (-1 OFF switch, 1 ON switch): -1; higher = weaker reporter binding
- Stated conditions: input ligand: none
Measured apparent KD of MS2 coat protein values are reported for all entries that follow.
Answer by giving the amount and then stating its unit.

Answered examples (2):
CAUCUGUGAGGAUAUGGUGAGUAGUGCCUGAGCGCUGCUCACCAGAAGGCACAUGAGGAUCACCCAUGUAUGAC [JL-ex4-2.01 denovo] (Eterna round: R96, puzzle: Exclusion 4) ... 0.07 µM
UACAUGAGGAUCACCCAUGUUUUGUCGUGUAUGGUAAUAAUCUAGGAUAUCAAUUUAUUUAUUUAUGAGAAGGAGAAUAAUAAA [JMF's solution 4] (Eterna round: R96, puzzle: Exclusion NG 3) ... 0.0617 µM

[Q] Which apparent KD of MS2 coat protein value belongs to CGAUGAGGUGUGAGGAUAUCGUGUUCGAAAGAACGUGAGAAGGCACAUGAGGAUCACCCAUGUUAACCUUGUCG [Omei Ex4B A13] (Eterna round: R97, puzzle: Brourd's mod of Exclusion 4) ?
[A] 0.0132 µM

====

Measured apparent KD of MS2 coat protein values are reported for all entries that follow.
- Test system: MS2 coat protein
- Test method notes: apparent KD of MS2 coat protein; designed switch direction (-1 OFF switch, 1 ON switch): -1; higher = weaker reporter binding
- Stated conditions: input ligand: none
The reply should be a number in µM, with the unit left off.

CCCGUGUGAGGAUAUACUCUAAGCAUUGACAGUUGCUACAGGUAGAAGGCACAUGAGGAUCACCCAUGUCCCGG [EX4 C.13] (Eterna round: R97, puzzle: Exclusion 4) ... 0.295

[Q] Which apparent KD of MS2 coat protein value belongs to AUUUAGUCAGGAUAUACAUGAGGAUCACCCAUGUAAACUUUUAGUUUAAUUUGAAUGUGUAGAAGGGACAUUUA [Ex3 #46] (Eterna round: R97, puzzle: Exclusion 3) ?
[A] 0.028

[Q] Follow-up item: GCCUUACCGGUCAGGAUAUACAUUCGUCACUCCUUGUAGAAGGGACAUGAGGAUCACCCAUGUACAUUACAUUC [alecazam41] (Eterna round: R97, puzzle: Brourd's mod of Exclusion 4)
[A] 0.0261

====

- Tested on: K4 kissing-loop RNA reporter;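 also: bound reporter read as fluorescence of individual clusters on recovered sequencing chips by microscopy, with normalized cluster intensities fitted with a binding model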
- Test method notes: apparent KD of K4 kissing-loop reporter; higher = weaker reporter binding
- Stated conditions: Eterna round: R107; input ligand: arginine 13.2 mM
Property name: apparent KD of K4 kissing-loop reporter

UAUUGAUUGUCAGGAUAUCGUAAACGAGUGAUGUUCGUAAAUCGACGAUAGUCGAUAUGAUCUGAACGAGAAGGGACAUUAUUUA [JR_SSFMNB_Sub010] ... 311 nM

[Q] Which apparent KD of K4 kissing-loop reporter value belongs to AGAGUUAUGAGAGGAUAUGCGGCUAGUACUCAAAGAGUACUAGCAGCGGAGUGAUGUUCUGCGAAAGCAGAAGGUUCAUAACUCA [#08 K4 FMN B Same State] ?
[A] 622 nM

[Q] Follow-up item: UAAUCCUAAUGAUAAUAAUCAAGUGGUGGACGAGGACCGGUACGGCCGCCACUCGAAAAUGCAGUGAUGUUGUAAUACGGAUAAU [Exclusion - Tryptophan A (Freestyle 3)]
[A] 460 nM

[Q] Follow-up item: AUGCGACGUGCGGCCGCCACUCGGAUGCGAGUGAUGUUCGCGGGACGGACGCAAGUCCGUCAUUCGAGGACCGGGCAUCGGUGUA [#2 Same State - Tryptophan B Attempt #2 (HarryS)]
[A] 462 nM

[Q] Follow-up item: CCGGAUUAUGCGGCCGCCACUGAGAAAUUGGAGGUACGCCCUCCCGAUAGUGAUGUUAUCCAUUACAGGACCGGGCAUCUCCUCU [theeternabot_sameState_KL_Trp_B_23]
[A] 421 nM

[Q] Follow-up item: AUUCGUUUAUGUGAUACCAGACUUUGCAGUGAUGUUGCUUUAAUUAAAGAUGUUUAGUUUGUCCCUUGGCAGCACUAUUUAUUUA [JR_SSTheophyB_Sub001]
[A] 113 nM
